Experiment: in vitro
Conditions: human, hek293t cells
measurementType: viability at 48 h, 25 µM (%)
I only need the number, in %, no unit after it.

As a guide, the following entries are already answered.
| compound | measurementType | obsValue |
| --- | --- | --- |
| C=CC(=O)N1CCCC(CS(=O)(=O)NC)C1 (stereo not shown) | viability at 48 h, 25 µM | 95 |
| CS(=O)(=O)c1ccc(CNC(=O)CCl)cc1 | viability at 48 h, 25 µM | 1.69 |

IN: Fill in: viability at 48 h, 25 µM of CC(Cl)C(=O)N(C)C(C)c1ccccc1N1CCCS1(=O)=O (stereo not shown) is ___
OUT: 104

----------
Assay: in vitro
Details: human, hek293t cells
measurementType: viability at 48 h, 25 µM (%)
The response must be a number in % with no trailing unit.

Use the examples below as a reference point.
| molecule | viability at 48 h, 25 µM, % |
| --- | --- |
| C=CC(=O)NCCC1=CCCCCC1 | 93.5 |
| C=CC(=O)Nc1cnc(C2CCCC2)nc1 | 33 |
| CC(=O)NCc1ccc(C(=O)CCl)o1 | 86.8 |

Please examine the following record next.
IN: Give the measured viability at 48 h, 25 µM of CC(=Cc1ccccc1)C=C(C#N)C(=O)Nc1ccc2c(c1)OCCO2 .
OUT: 79.5

----------
The reader will find reported viability at 48 h, 25 µM values listed item by item below.
Assay: in vitro
Conditions: human, hek293t cells
Give your result in % as a bare value.

| compound | uom | viability at 48 h, 25 µM |
| --- | --- | --- |
| C=CC(=O)N1CCC(C(=O)N[C@H](C)c2ccc3c(c2)CCCC3)CC1 [3-P12] | % | 58 |
| Cc1ccc(-c2csc(NC(=O)CCl)n2)cc1C [5-F16] | % | 0.595 |
| N#CC(=Cc1ccc(Cl)cc1)C(=O)Nc1ccncc1 [8-K20] | % | 61.4 |
| C=CC(=O)NCc1ccno1 [1-O07] | % | 68.4 |
| O=C(CCl)NCc1ccccc1[N+](=O)[O-] [6-A22] | % | 0.388 |
| C=CC(=O)NCCc1csc(-c2ccccc2)n1 [1-A13] | % | 88.5 |

IN: Find the recorded viability at 48 h, 25 µM belonging to O=C(CCl)NC(Cc1ccccc1)C(=O)O (centres unmarked) [6-C13] and report it.
OUT: 97.4

IN: Now this one: Cc1ccc(NC(=O)CCl)cc1S(=O)(=O)N1CCOCC1 [4-L07]
OUT: 0.278

IN: Same for COc1ccc(C=C(C#N)C(=O)NCc2ccccc2)cc1 [8-K19]
OUT: 77.3

IN: Let us now turn to CC(=O)Nc1ccc(C=C(C#N)C(=O)Nc2cccc(C)c2C)cc1 [9-D19]
OUT: 107

IN: Same again, this time with C=CC(=O)N(C)Cc1cn(C2CC2)cn1 [2-J13]
OUT: 76.5

IN: Repeat with Cc1cccc(C)c1NC(=O)C(C#N)=Cc1ccc(C(=O)O)cc1 [9-G17]
OUT: 111

IN: Next: N#CC(=Cc1ccccc1Cl)C(=O)Nc1ccc2c(c1)OCCO2 [8-F03]
OUT: 94.9

IN: Lookup O=C(CCl)NCc1ccn(Cc2ccccc2)n1 [7-H10]
OUT: 0.654

IN: Then this compound: CC(Cl)C(=O)Nc1ccc(Cl)cc1C(F)(F)F (centres unmarked) [4-A14]
OUT: 50.2

IN: Cc1ccc(-n2c(C)cc(C(=O)CCl)c2C)cc1F [10-C06] , same question.
OUT: 0.213

IN: Also, O=C(CCl)Nc1ccccc1C(=O)c1ccccc1 [4-J06, N-(2-benzoylphenyl)-2-chloroacetamide] please.
OUT: 1.12

IN: Also CC(C)C(=O)Nc1ccc(C(=O)CCl)cc1 [10-D04] ?
OUT: 30.8

IN: Entry O=C(CCl)N1CCC(CCc2ccccc2)CC1 [6-G12] please
OUT: 1.05

IN: Now the compound CC(C)Cc1ccc(C(C)NC(=O)CCl)cc1 (centres unmarked) [4-H03]
OUT: 0.63

IN: Item: COc1cccc(NC(=O)C(C#N)=Cc2ccc([N+](=O)[O-])o2)c1 [8-A19]
OUT: 72.4

----------
Test: in vitro
Conditions: human, hek293t cells
measurementType: viability at 48 h, 25 µM (%)
Could you give me the number in %? Just the number is fine.

Here are 3 molecules together with their reported answers.
| molecule | viability at 48 h, 25 µM [%] |
| --- | --- |
| C=CC(=O)N(CC)CC(=O)N1CCN(c2ccc(C#N)cc2F)CC1 | 74.4 |
| C=CC(=O)NCc1ncc(C)o1 | 48.8 |
| Cc1cccc(NC(=O)C(C#N)=Cc2ccc(F)c(F)c2)c1 | 75.5 |

IN: For the molecule N#CC(=Cc1cccc2ccccc12)C(=O)NCc1ccccc1 , what viability at 48 h, 25 µM is on record?
OUT: 48

IN: Another: CC(c1ccc(C(F)(F)F)c(Cl)c1)N(C)C(=O)CCl (centres unmarked)
OUT: 0.626

IN: Try this molecule too: C=CCNC(=O)C(C#N)=Cc1sccc1C
OUT: 117

IN: Another molecule to check: COc1ccc2ccccc2c1-c1cc(CNC(=O)C(C)Cl)on1 (centres unmarked)
OUT: 87.9

IN: How about this molecule: Cc1noc(C2CN(C(=O)C(C)Cl)C2)n1 (centres unmarked)
OUT: 92.2

IN: How about this molecule: C=CC(=O)N1CCC(c2nc(C3CC3)no2)C1 (centres unmarked)
OUT: 70

IN: How about Cn1c(N)c(N2C(=O)C=CC2=O)c(=O)[nH]c1=O ?
OUT: 124

IN: One more molecule: C=CC(=O)N(CC)CC(=O)NC1CCN(C(C)=O)c2ccccc21 (centres unmarked)
OUT: 99.7

IN: Another molecule to check: C=CC(=O)N(Cc1ccc(Cl)cc1Cl)CC1CCC(O)C1 (centres unmarked)
OUT: 26.4

IN: Try COc1ccc(C=C(C#N)C(=O)Nc2cccnc2)cc1OC next.
OUT: 118

IN: Input COc1cc(C=C(C#N)C(N)=O)ccc1OC(F)F
OUT: 82.2

IN: C=CC(=O)NCC(C)(C)Cn1cccn1 ?
OUT: 69.4

IN: Now the molecule C=CC(=O)NCc1ccccc1-n1ccc(C)n1
OUT: 126

IN: What do you get for CC(Cl)C(=O)NCCS(=O)(=O)c1cccs1 (centres unmarked) ?
OUT: 105

IN: Check CC(C)Oc1ccccc1C=C(C#N)C(=O)Nc1ccccc1 too.
OUT: 78.4

IN: Try this molecule next: C=CC(=O)N1CCN(Cc2cc(C)no2)CC1
OUT: 70.8

IN: Moving on to the next molecule: CC(C)CN(C(=O)CCl)c1cnn(-c2ccccn2)c1
OUT: 0.323

IN: Entry to check: O=C(CCl)NCC1CCCN(C(=O)C(F)(F)F)C1 (centres unmarked)
OUT: 0.898

IN: Then what about the molecule C=CC(=O)NCc1ccc(-n2cccn2)cc1 ?
OUT: 81.4

IN: Let us now turn to CC(Cl)C(=O)N1CC(=O)Nc2cc(C(F)(F)F)ccc21 (centres unmarked)
OUT: 82.1

IN: Check CN(CC(=O)Nc1ccccc1Cl)C(=O)CCl too.
OUT: 0.034

IN: Proceed to CC(Cl)C(=O)NCc1ccc(F)cc1 (centres unmarked)
OUT: 76.2

IN: Moving on to the next molecule: Cc1ccc(NC(=O)C(C#N)=Cc2ccc(C)s2)cc1
OUT: 77

IN: # repeat for CCN(CC)S(=O)(=O)c1ccc(Cl)c(NC(=O)C(C)Cl)c1 (centres unmarked)
OUT: 79.6

IN: Check CC1CN(c2cccc(CN(C)C(=O)C(C)Cl)c2)S(=O)(=O)C1 (centres unmarked) too.
OUT: 112

IN: Same lookup for C=CC(=O)N1CCC(OC2CCCC2)CC1 , please.
OUT: 96.8

----------
Assay: in vitro
Settings: human, hek293t cells
measurementType: viability at 48 h, 25 µM (%)
Please state the figure in %; there is no need to write the unit.

| molecule | viability at 48 h, 25 µM / % |
| --- | --- |
| COc1ccc(CCN2C(=O)C=CC2=O)cc1 [10-A05] | 5.85 |

IN: What value of viability at 48 h, 25 µM has been recorded for this entry: O=C(CCl)Nc1cc(-n2cnnn2)ccc1Cl [6-A05]
OUT: 0.726

IN: Likewise for CC(Cl)C(=O)NC1CCCN(c2cnn(C)c2)C1 (stereo not shown) [7-K19] ?
OUT: 75.7

IN: Same question, C=CC(=O)NCC1(n2ccnn2)CC1 [2-L19] this time
OUT: 45.7

IN: Next molecule: Cc1cc(C(=O)C(C)Cl)c(C)n1-c1ccccc1 (stereo not shown) [10-A06]
OUT: 99.9

Values from paper PMC11995724
